- assay_overview: Cytotoxicity against human multidrug-resistant SKVLB1 cells in presence of adriamycin
- Type: functional, cell-based
readout_name: IC50 (nM)
Report as a plain number; the unit nM is understood.

{"compound": "COc1cc(/C=C/C(=O)O[C@H]2C[C@H]3C[C@H](OC(=O)/C=C/c4cc(OC)c(OC)c(OC)c4)[C@@H](C2)N3C)cc(OC)c1OC [PERVILLEINE C]", "IC50 [nM]": 80}
{"compound": "COc1cc(/C=C/C(=O)O[C@H]2[C@@H](O)[C@@H]3C[C@H](OC(=O)c4cc(OC)c(OC)c(OC)c4)C[C@H]2N3C)cc(OC)c1OC [PERVILLEINE A]", "IC50 [nM]": 650}

Using the record for COc1cc2c(cc1OC)CN(CCc1ccc(NC(=O)c3cccc4c(=O)c5cccc(OC)c5[nH]c34)cc1)CC2 , report its IC50.
20

Using the record for COc1cc(/C=C/C(=O)O[C@H]2C[C@@H]3C[C@H](OC(=O)c4cc(OC)c(OC)c(OC)c4)C[C@H]2N3C)cc(OC)c1OC [PERVILLEINE B] , report its IC50.
120

----------
- assay_overview: Cytotoxicity against human multidrug-resistant KBV1 cells in presence of vinblastin
- Format: functional
- reported_conditions: KB-V1, read-out: ED50 (the source's name)
Below, each entry is listed alongside its reported EC50.
Report as a plain number; the unit mg/L is understood.

The following compounds have reported results that may help.
{"compound": "COc1cc(/C=C/C(=O)O[C@H]2C[C@@H]3C[C@H](OC(=O)Cc4cccc(O)c4)C[C@H]2N3C)cc(OC)c1OC [PERVILLEINE E]", "readout_name": "EC50", "reading_unit": "mg/L", "measured_result": 1.9}
{"compound": "COc1cc(/C=C/C(=O)O[C@H]2C[C@@H]3C[C@H](OC(=O)Cc4ccccc4)C[C@H]2N3C)cc(OC)c1OC [PERVILLEINE F]", "readout_name": "EC50", "reading_unit": "mg/L", "measured_result": 0.2}

Now for a further compound.
Using the record for COc1cc(/C=C/C(=O)O[C@@H]2C[C@@H]3[C@@H](OC(=O)/C=C/c4cc(OC)c(OC)c(OC)c4)[C@@H](O)[C@H](C2)N3C)cc(OC)c1OC [PERVILLEINE D] , report its EC50.
0.2

----------
- assay_overview: Cytotoxicity against human multidrug-resistant KBV1 cells in absence of vinblastin
- Assay type: functional
- reported_conditions: KB-V1, read-out: ED50 (the source's name)
Below, each entry is listed alongside its reported EC50.

{"compound": "COc1cc(/C=C/C(=O)O[C@H]2C[C@@H]3C[C@H](OC(=O)Cc4cccc(O)c4)C[C@H]2N3C)cc(OC)c1OC", "EC50": "> 20 µg/mL"}
{"compound": "COc1cc(/C=C/C(=O)O[C@H]2[C@@H](O)[C@@H]3C[C@H](OC(=O)c4cc(OC)c(OC)c(OC)c4)C[C@H]2[N+]3(C)[O-])cc(OC)c1OC (some centres undefined)", "EC50": "> 20 µg/mL"}
{"compound": "COc1cc(/C=C/C(=O)O[C@H]2C[C@H]3C[C@H](OC(=O)/C=C/c4cc(OC)c(OC)c(OC)c4)[C@@H](C2)N3C)cc(OC)c1OC", "EC50": "9 µg/mL"}
{"compound": "COc1cc(/C=C/C(=O)O[C@H]2[C@@H](O)[C@@H]3C[C@H](OC(=O)c4cc(OC)c(OC)c(OC)c4)C[C@H]2N3C)cc(OC)c1OC", "EC50": "> 20 µg/mL"}
{"compound": "COc1cc(/C=C/C(=O)O[C@H]2C[C@@H]3C[C@H](OC(=O)Cc4ccccc4)C[C@H]2N3C)cc(OC)c1OC", "EC50": "> 20 µg/mL"}
{"compound": "CN1C2C[C@@H](OC(=O)Cc3ccccc3)CC1[C@H](O)[C@@H]2O", "EC50": "> 20 µg/mL"}
{"compound": "COc1cc(/C=C/C(=O)O[C@@H]2C[C@@H]3[C@@H](OC(=O)/C=C/c4cc(OC)c(OC)c(OC)c4)[C@@H](O)[C@H](C2)N3C)cc(OC)c1OC", "EC50": "9 µg/mL"}
{"compound": "COc1cc(/C=C/C(=O)O[C@H]2C[C@@H]3C[C@H](OC(=O)c4cc(OC)c(OC)c(OC)c4)C[C@H]2N3C)cc(OC)c1OC", "EC50": "8.8 µg/mL"}

Now for a further compound.
Using the record for COc1cc(C(=O)O[C@H]2C[C@H]3CC[C@@H](C2)N3C)cc(OC)c1OC , report its EC50.
> 20 µg/mL
